# Assayed system: GAL4-RORγ (GAL4 DBD fused to the ROR gamma ligand-binding domain) (Homo sapiens, UniProt P51449)
# Sequence (P51449 269-508 limits assumed): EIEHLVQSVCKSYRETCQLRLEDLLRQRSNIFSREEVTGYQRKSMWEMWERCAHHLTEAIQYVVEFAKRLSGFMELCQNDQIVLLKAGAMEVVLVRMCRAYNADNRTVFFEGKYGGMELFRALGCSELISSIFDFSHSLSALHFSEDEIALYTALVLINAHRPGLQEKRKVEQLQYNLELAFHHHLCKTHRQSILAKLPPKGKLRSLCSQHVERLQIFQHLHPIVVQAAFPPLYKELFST
# Procedure details: GAL4-RORγ transactivation (luciferase reporter, HG5LN HeLa line)
# Conditions: HG5LN HeLa cells, 18 hours incubation, luciferase luminescence, read-out: IC50 hRORg
pIC50: −log10 of the molar value.
Entries and their pIC50
Metric name: pIC50

>>> print(df.to_string())
                                   compound  recorded_value
0  CCCCN(c1ccc(CC)cc1)S(=O)(=O)c1ccc2c(cnn2CC2CCOCC2)c1          < 6.00
1  CCc1ccc(N(CC(C)C)S(=O)(=O)c2ccc3c(cnn3C3CCOCC3)c2)cc1          < 6.00
2  Cc1ccc(N(CC(C)C)S(=O)(=O)c2ccc3c(cnn3CC3CCOCC3)c2)c(C)c1    6.00 to 7.00
3  CCc1ccc(N(C(C)CC)S(=O)(=O)c2ccc3c(cnn3CC3CCOCC3)c2)cc1 (stereo not shown)    6.00 to 7.00

* * *

# Assayed system: GAL4-RORγ (GAL4 DBD fused to the ROR gamma ligand-binding domain) (Homo sapiens)
# Procedure details: GAL4-RORγ transactivation (luciferase reporter, HG5LN HeLa line)
# Conditions: HG5LN HeLa cells, 18 hours incubation, luciferase luminescence, read-out: IC50 hRORg
pIC50: −log10 of the molar value.
Metric name: pIC50

                                    molecule                            assayed_system  metric_name  recorded_value
 0  CCc1ccc(N(CC2CCC2)S(=O)(=O)c2ccc3c(cnn3CC3CCOCC3)c2)cc1 [Compound 24]  GAL4-RORγ (GAL4 DBD fused to the ROR gamma ligand-binding domain) (Homo sapiens)        pIC50    6.00 to 7.00
 1  Cc1cccc(F)c1N(CC(C)C)S(=O)(=O)c1ccc2c(cnn2CC2CCOCC2)c1 [Compound 53]  GAL4-RORγ (GAL4 DBD fused to the ROR gamma ligand-binding domain) (Homo sapiens)        pIC50          < 6.00
 2  CCc1ccc(N(CC(CO)CCl)S(=O)(=O)c2ccc3c(cnn3CC3CCOCC3)c2)cc1 (centres unmarked) [Compound 60]  GAL4-RORγ (GAL4 DBD fused to the ROR gamma ligand-binding domain) (Homo sapiens)        pIC50          < 6.00
 3  COc1ccc(N(CC(C)C)S(=O)(=O)c2ccc3c(cnn3CC3CCOCC3)c2)c(C)c1 [Compound 55]  GAL4-RORγ (GAL4 DBD fused to the ROR gamma ligand-binding domain) (Homo sapiens)        pIC50    6.00 to 7.00
 4  CCc1ccc(N(CC2COC2)S(=O)(=O)c2ccc3c(cnn3CC3CCOCC3)c2)cc1 [Compound 16]  GAL4-RORγ (GAL4 DBD fused to the ROR gamma ligand-binding domain) (Homo sapiens)        pIC50          < 6.00
 5  CCc1ccc(N(CC(C)C)S(=O)(=O)c2ccc3c(CN4C[C@@H](C)O[C@@H](C)C4)n[nH]c3c2)cc1 [Compound 65]  GAL4-RORγ (GAL4 DBD fused to the ROR gamma ligand-binding domain) (Homo sapiens)        pIC50          < 6.00
 6  CCCCc1ccc(N(CC(C)C)S(=O)(=O)c2ccc3c(cnn3CC3CCOCC3)c2)c(C)c1 [Compound 13]  GAL4-RORγ (GAL4 DBD fused to the ROR gamma ligand-binding domain) (Homo sapiens)        pIC50    6.00 to 7.00
 7  Cc1cc(C)cc(N(CC(C)C)S(=O)(=O)c2ccc3c(cnn3CC3CCOCC3)c2)c1 [Compound 28]  GAL4-RORγ (GAL4 DBD fused to the ROR gamma ligand-binding domain) (Homo sapiens)        pIC50          < 6.00
 8  CCc1ccc(N(CC(C)C)S(=O)(=O)c2ccc3c(cnn3C3CCN(C(C)=O)C3)c2)cc1 (centres unmarked) [Compound 40]  GAL4-RORγ (GAL4 DBD fused to the ROR gamma ligand-binding domain) (Homo sapiens)        pIC50          < 6.00
 9  Cc1cccc(N(CC(C)C)S(=O)(=O)c2ccc3c(cnn3CC3CCOCC3)c2)c1 [Compound 26]  GAL4-RORγ (GAL4 DBD fused to the ROR gamma ligand-binding domain) (Homo sapiens)        pIC50          < 6.00
10  CCc1ccc(N(CC(C)C)S(=O)(=O)c2ccc3c(CN4CCOC[C@@H]4C)n[nH]c3c2)cc1 [Compound 66]  GAL4-RORγ (GAL4 DBD fused to the ROR gamma ligand-binding domain) (Homo sapiens)        pIC50    6.00 to 7.00
11  Cc1cc(C#N)ccc1N(CC(C)C)S(=O)(=O)c1ccc2c(cnn2CC2CCOCC2)c1 [Compound 57]  GAL4-RORγ (GAL4 DBD fused to the ROR gamma ligand-binding domain) (Homo sapiens)        pIC50    6.00 to 7.00
12  CCc1ccc(N(CC(C)C)S(=O)(=O)c2cc(C(=O)OC)c3c(cnn3CC3CCOCC3)c2)cc1 [Compound 74]  GAL4-RORγ (GAL4 DBD fused to the ROR gamma ligand-binding domain) (Homo sapiens)        pIC50          < 6.00
13  COc1cccc(N(CC(C)C)S(=O)(=O)c2ccc3c(cnn3CC3CCOCC3)c2)c1 [Compound 25]  GAL4-RORγ (GAL4 DBD fused to the ROR gamma ligand-binding domain) (Homo sapiens)        pIC50          < 6.00
14  CCc1ccc(N(CC(C)C)S(=O)(=O)c2ccc3c(cnn3CC3CN(C(C)=O)C3)c2)cc1 [Compound 19]  GAL4-RORγ (GAL4 DBD fused to the ROR gamma ligand-binding domain) (Homo sapiens)        pIC50          < 6.00
15  CCc1ccc(N(C2CCCC2)S(=O)(=O)c2ccc3c(cnn3CC3CCOCC3)c2)cc1 [Compound 32]  GAL4-RORγ (GAL4 DBD fused to the ROR gamma ligand-binding domain) (Homo sapiens)        pIC50          > 7.00
16  CC(C)CN(c1cc(Cl)ccc1F)S(=O)(=O)c1ccc2c(cnn2CC2CCOCC2)c1 [Compound 10]  GAL4-RORγ (GAL4 DBD fused to the ROR gamma ligand-binding domain) (Homo sapiens)        pIC50          < 6.00
17  CCc1ccc(N(CC(C)C)S(=O)(=O)c2ccc3c(cnn3CC3CCOCC3)c2)cc1 [Compound 39]  GAL4-RORγ (GAL4 DBD fused to the ROR gamma ligand-binding domain) (Homo sapiens)        pIC50    6.00 to 7.00
18  CCc1ccc(N(C2CCC2)S(=O)(=O)c2ccc3c(cnn3CC3CCOCC3)c2)cc1 [Compound 41]  GAL4-RORγ (GAL4 DBD fused to the ROR gamma ligand-binding domain) (Homo sapiens)        pIC50          < 6.00
19  CC(C)CN(c1ccccc1C(F)(F)F)S(=O)(=O)c1ccc2c(cnn2CC2CCOCC2)c1 [Compound 58]  GAL4-RORγ (GAL4 DBD fused to the ROR gamma ligand-binding domain) (Homo sapiens)        pIC50    6.00 to 7.00
20  CCc1ccc(N([C@H](C)CC)S(=O)(=O)c2ccc3c(cnn3CC3CCOCC3)c2)cc1 [Compound 2]  GAL4-RORγ (GAL4 DBD fused to the ROR gamma ligand-binding domain) (Homo sapiens)        pIC50    6.00 to 7.00
21  CC(C)CN(c1ccc(C(C)C)cn1)S(=O)(=O)c1ccc2c(cnn2CC2CCOCC2)c1 [Compound 50]  GAL4-RORγ (GAL4 DBD fused to the ROR gamma ligand-binding domain) (Homo sapiens)        pIC50          < 6.00
22  CCCN(c1ccc(CC)cc1)S(=O)(=O)c1ccc2c(cnn2CC2CCOCC2)c1 [Compound 8]  GAL4-RORγ (GAL4 DBD fused to the ROR gamma ligand-binding domain) (Homo sapiens)        pIC50          < 6.00
23  CC(C)CN(c1ccc(F)cc1)S(=O)(=O)c1ccc2c(cnn2CC2CCOCC2)c1 [Compound 46]  GAL4-RORγ (GAL4 DBD fused to the ROR gamma ligand-binding domain) (Homo sapiens)        pIC50          < 6.00
24  CC(C)CN(c1ccc(C(F)(F)F)cc1)S(=O)(=O)c1ccc2c(cnn2CC2CCOCC2)c1 [Compound 59]  GAL4-RORγ (GAL4 DBD fused to the ROR gamma ligand-binding domain) (Homo sapiens)        pIC50          < 6.00
25  CCc1ccc(N(CC(C)C)S(=O)(=O)c2ccc3c(c2)c(CO)nn3CC2CCOCC2)cc1 [Compound 14]  GAL4-RORγ (GAL4 DBD fused to the ROR gamma ligand-binding domain) (Homo sapiens)        pIC50          < 6.00
26  CCc1ccc(N(CC(C)C)S(=O)(=O)c2ccc3[nH]nc(OCC4CCOCC4)c3c2)cc1 [Compound 61]  GAL4-RORγ (GAL4 DBD fused to the ROR gamma ligand-binding domain) (Homo sapiens)        pIC50          < 6.00
27  CCc1ccc(N(CC(C)C)S(=O)(=O)c2ccc3c(CN4CCOCC4)n[nH]c3c2)cc1 [Compound 64]  GAL4-RORγ (GAL4 DBD fused to the ROR gamma ligand-binding domain) (Homo sapiens)        pIC50          > 7.00
28  CCc1ccc(N(CC(C)C)S(=O)(=O)c2ccc3c(c2)c(OCC2CCOCC2)nn3CC2CCOCC2)cc1 [Compound 18]  GAL4-RORγ (GAL4 DBD fused to the ROR gamma ligand-binding domain) (Homo sapiens)        pIC50          < 6.00
29  CCc1ccc(N(CC2CC2)S(=O)(=O)c2ccc3c(cnn3CC3CCOCC3)c2)cc1 [Compound 31]  GAL4-RORγ (GAL4 DBD fused to the ROR gamma ligand-binding domain) (Homo sapiens)        pIC50          < 6.00
30  CCc1ccc(N(C(C)C)S(=O)(=O)c2ccc3c(cnn3CC3CCOCC3)c2)cc1 [Compound 29]  GAL4-RORγ (GAL4 DBD fused to the ROR gamma ligand-binding domain) (Homo sapiens)        pIC50          < 6.00
31  CCc1ccc(N(CCC(C)C)S(=O)(=O)c2ccc3c(cnn3CC3CCOCC3)c2)cc1 [Compound 35]  GAL4-RORγ (GAL4 DBD fused to the ROR gamma ligand-binding domain) (Homo sapiens)        pIC50          < 6.00
